Provenance of the data: PubChem BioAssay (NCI)

Examples of compounds with documented GI50 follow.
System: DU-145 prostate
methodDescription: NCI tumour cell line growth inhibition, 48 h

chemSmiles	GI50
O=c1ncc(-c2ccc(C(F)(F)F)cc2)c(NC2CCCCCC2)[nH]1	31.6 µM
O=C1C(=O)c2cc([N+](=O)[O-])ccc2-c2ccccc21	1.74 µM
COc1cc2c(c(OC)c1OC)-c1ccc(OC)c(=O)cc1[C@@H](NC(=O)CCl)CC2	< 0.01 µM
COc1cc(N2CCC(N3CCN(C)CC3)CC2)ccc1Nc1ncc(Cl)c(Nc2ccccc2P(C)(C)=O)n1	0.933 µM

---

System: LOX IMVI melanoma
methodDescription: NCI tumour cell line growth inhibition, 48 h; in the data active means GI50 below about 0.43 µM; inactive means the rest
Classes used: 1 (yes) for active, 0 (no) for inactive

compound	className
Nc1nc(N)c2nc(CNc3ccc(C(=O)CC(CCC(=O)O)C(=O)O)cc3)cnc2n1 (stereo not given)	1 (yes)
C[C@H]1CCC/C=C/[C@@H]2C[C@H](O)C[C@H]2[C@H](O)[C@H](S(=O)c2ccc(O)cc2)CC(=O)O1 (stereo not given in full)	1 (yes)
COc1cc2[nH]c(C(=O)c3cc(OC)c(OC)c(OC)c3)c(N)c2cc1C#CCO	0 (no)
CN1CCN(C(=O)c2ccc(NC(=O)Nc3ccc(N(C)c4ccnc(Nc5ccc(CS(C)(=O)=O)cc5)n4)cc3)cc2)CC1	0 (no)
Nc1ncc(-c2cnn(C3CCNCC3)c2)cc1-c1nc2ccccc2o1	0 (no)
O=c1oc2ccc(Cl)cc2c(=O)n1-c1ccc(Cl)cc1F	1 (yes)
COc1ccc(C(=O)/C=C/c2cc3ccccc3[nH]c2=O)cc1	0 (no)
CCCCCCN(CCCCCC)C(=N)c1ccnc2ccccc12	0 (no)
CN(C)CC/C=C1\c2ccccc2Sc2ccc(Cl)cc21	0 (no)
CS(=O)(=O)CCNCc1ccc(-c2ccc3ncnc(Nc4ccc(OCc5ccccc5)c(C(F)(F)F)c4)c3c2)o1	0 (no)

---

System: SNB-75 CNS
methodDescription: NCI tumour cell line growth inhibition, 48 h

molecule	censoringOperator	TGI (µM)
CS(=O)(=O)CCNCc1ccc(-c2ccc3ncnc(Nc4ccc(OCc5ccccc5)c(C(F)(F)F)c4)c3c2)o1	=	24.7
Cc1cc(C)c2c(=O)cc(-c3ccc(Cl)cc3)[nH]c2n1	>	65
CCc1ccc(C2=C/C(=C/c3ccc(Cl)cc3)C(=O)N2CCc2ccc(S(N)(=O)=O)cc2)cc1	=	12.9
CC(=O)OCC1OC(n2c(C)c(N=Nc3ccc(C)cc3)c(C)c(C#N)c2=S)C(OC(C)=O)C(OC(C)=O)C1OC(C)=O (stereo not given)	>	100
CCOC(=O)CSc1nc2ccccc2c(=O)n1N	>	100
C#C[C@@]1(O)[C@@H](CO)O[C@@H](n2cc(Cl)c3c(N)ncnc32)[C@@H]1O	=	0.714
CC1(C)C(O)c2ccccc2OC1N1CCN(C2Oc3ccccc3C(O)C2(C)C)CC1 (stereo not given)	>	100
CC1(C)CCC(=O)c2c(O)ccc(O)c21	=	98.3
CCOC(=O)[C@H](CSSc1ncnc2cc[nH]c12)NC(=O)[C@@H](C)c1ccc2cc(OC)ccc2c1	>	100
CC1=CC(=O)C(C)(C2=NC(C)(C)CO2)c2ccccc21 (stereo not given)	>	100

---

System: LXFL 529 NSCLC
methodDescription: NCI tumour cell line growth inhibition, 48 h

compound	TGI
Cc1cc(N(CCC#N)CCC#N)ccc1/C=C1/CN(N2C(=O)/C(=C/c3ccc(N(CCC#N)CCC#N)cc3C)N=C2c2ccccc2)C(c2ccccc2)=N1	> 100 µM
c1cncc(C2c3[nH]c4ccccc4c3CCN2CCCN2CCCCC2)c1 (stereo not drawn)	> 100 µM
C[C@]12CCC3c4ccc(OC(=O)c5ccccc5)cc4CC[C@H]3C1CC[C@@H]2OC(=O)C12OC1CCC2=O (stereo partly drawn)	3.76 µM
O=c1c(O)c(-c2ccc(O)c(O)c2)oc2cc(O)ccc12	> 87.7 µM
CC(N)Cc1cccc(C(F)(F)F)c1 (stereo not drawn)	> 100 µM
Nn1c(CCCl)nc2c(Br)cc(Br)cc2c1=O	69.3 µM
CS(=O)(=O)c1nc(N)nc2nc[nH]c12	> 100 µM
CN1C(=O)n2c(nc3ccccc32)C(N=[N+]=[N-])(N=[N+]=[N-])C1=O (stereo not drawn)	> 100 µM
CC1(C)CCC(=O)c2c(O)ccc(O)c21	> 100 µM
CC[O-].CC[O-].[O-]c1ccccc1C=Nc1ccccc1.[O-]c1ccccc1C=Nc1ccccc1.[Ti+4]	> 100 µM
CC(=O)[CH-]C(=O)c1ccccc1.CC(=O)[CH-]C(=O)c1ccccc1.O=C([O-])C[O-].O=C([O-])C[O-].[Ti+4]	> 100 µM
CCOC(=O)/C(=C/c1ccc(OC)c(OC)c1)C(=O)c1ccccc1	25.3 µM
CCN1C(C)=NC2C(=O)c3ccccc3C(=O)C21 (stereo not drawn)	> 100 µM
